Consider the following compounds and their measured concentration at 15 min readings.
# RUN DESCRIPTION: Compound plasma concentrations in unsensitized mice at 15 min post administration
# Type: in vivo
# CONDITION DETAILS: mouse, 15 μmol/kg; mean compound plasma concentration in mice at 15 minutes post oral administration; read-out: Mouse Oral PK
In your response, the unit should come after the numeric value.

1. CCS(=O)(=O)Nc1cccc(CN2CCC[C@@H](Nc3ccc4[nH]ncc4c3)C2)c1: 71 nM

Suppose we examine the compound "CCS(=O)(=O)Nc1cc(CN2CCC[C@H](Nc3ccc4[nH]ncc4c3)C2)ccc1C" ; what concentration at 15 min value has been reported? 240 nM

Query: concentration at 15 min; subject: "Cc1cccc(CN2CCC[C@H](Nc3ccc4[nH]ncc4c3)C2)c1C" 88 nM
